biological target: Solute carrier family 2, facilitated glucose transporter member 1 (Homo sapiens) (UniProt P11166); assay: ST_JUDE_LEISH: Cytotoxicity at 2uM final concentration against transgenic Leishmania Mexicana promastigotes LmGLUT1 that are glucose transport deficient and complemented with the human glucose transporter GLUT1. Activity is measured by DNA content using SYBR green in vitro; type: functional
Sequence (P11166 whole entry): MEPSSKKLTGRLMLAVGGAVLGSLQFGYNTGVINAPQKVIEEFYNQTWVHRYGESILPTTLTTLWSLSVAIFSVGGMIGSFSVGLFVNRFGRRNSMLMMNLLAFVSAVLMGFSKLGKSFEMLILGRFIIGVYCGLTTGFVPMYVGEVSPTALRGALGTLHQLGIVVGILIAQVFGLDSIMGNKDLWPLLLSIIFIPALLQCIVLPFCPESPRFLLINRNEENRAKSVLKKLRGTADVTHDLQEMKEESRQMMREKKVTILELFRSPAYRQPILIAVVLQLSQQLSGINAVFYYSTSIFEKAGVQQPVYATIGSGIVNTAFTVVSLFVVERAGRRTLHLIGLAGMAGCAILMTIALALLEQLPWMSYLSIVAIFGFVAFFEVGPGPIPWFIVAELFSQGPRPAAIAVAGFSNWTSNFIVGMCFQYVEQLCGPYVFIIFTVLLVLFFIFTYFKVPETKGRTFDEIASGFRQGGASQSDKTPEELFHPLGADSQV
inhibition class ranges: class 0: < 3%; class 1: ≥ 3% and < 8%; class 2: ≥ 8%

>  <MOLECULE>
Fc1ccc2[nH]c(-c3ccc(-c4ccc(CN5CCCCC5)cc4)s3)nc2c1

>  <ASSIGNED CLASS>
class 1

$$$$
>  <MOLECULE>
CC(CCc1ccccc1)NCC(O)c1ccc2c3c(cccc13)C(=O)N2C (stereo not given)

>  <ASSIGNED CLASS>
class 0

$$$$

Lab note: which band did O=S(=O)(Nc1ccc(CCN2CCCCC2CCN2CCCC2)cc1)c1cccc2cccnc12 (stereo not given) land in?
class 0

----------
biological target: Glucose transporter (Leishmania mexicana) (UniProt O61059); experiment: ST_JUDE_LEISH: Cytotoxicity at 2uM final concentration against transgenic Leishmania Mexicana promastigotes LmGT2 that are glucose transport deficient and complemented with the L. Mexicana glucose transporter 2. Activity is measured by DNA content using SYBR green in vitro; type: functional
MEASURE NAME: inhibition (%)
Please respond with the number in % and leave the unit unwritten.

The cases that follow already have their inhibition on record.
>  <COMPOUND>
Cc1ccc(C(=O)NCC2CCN(c3ccc(C(F)(F)F)cc3NC(=O)c3ccco3)CC2)cn1

>  <EXPERIMENTAL RESULT>
3.12

$$$$
>  <COMPOUND>
COc1cccc(NC(=O)c2ccc(NCCCN3CCC(C)CC3)c([N+](=O)[O-])c2)c1

>  <EXPERIMENTAL RESULT>
12.8

$$$$
>  <COMPOUND>
O=C(/C=C/c1ccc(Cl)c(Cl)c1)NC1CCN(Cc2ccc(O)cc2)CC1

>  <EXPERIMENTAL RESULT>
-3.54

$$$$
>  <COMPOUND>
CN1CCN(c2ccc(Cl)cc2NC(=O)C2COc3ccccc3O2)CC1 (centres undefined)

>  <EXPERIMENTAL RESULT>
-1.34

$$$$
>  <COMPOUND>
CC(C)(CNCc1ccc(C(F)(F)F)cc1)c1nc(-c2ccc(Cl)c(O)c2)c(-c2ccncc2)[nH]1

>  <EXPERIMENTAL RESULT>
0.02

$$$$
>  <COMPOUND>
Cc1cc(N[C@@H](C)C(=O)Nc2ccccc2)nc(NCCc2ccc(F)cc2)n1

>  <EXPERIMENTAL RESULT>
1.18

$$$$
>  <COMPOUND>
O=C(CC1NC(=O)c2ccccc21)Nc1ccc(-c2ccc(-c3nc4cc(C(F)(F)F)ccc4[nH]3)cc2)cc1 (centres undefined)

>  <EXPERIMENTAL RESULT>
5.45

$$$$
>  <COMPOUND>
O=C(/C=C/c1ccc(Cl)c(Cl)c1)NCCCCCN1CCC(NC(=S)Nc2ccc(Cl)c(Cl)c2)CC1

>  <EXPERIMENTAL RESULT>
3.5

$$$$

Could you share which inhibition value was measured for "Cc1cc(N[C@@H](Cc2ccccc2)C(=O)NCCOc2ccccc2)nc(NCCc2cccs2)n1" ?
6.47

Could you share which inhibition value was measured for "Cc1cc(-c2cccc(CNCCc3ccc(Cl)cc3)c2)cnc1N" ?
7.77

Could you share which inhibition value was measured for CC(C)c1ccc(CN2CCC(CNC(=O)c3cc(-c4ccccc4F)cs3)C2)cc1 (centres undefined) ?
8.4

Could you share which inhibition value was measured for O=C(Nc1ccc(C(F)(F)F)cc1)c1ccc(S(=O)(=O)NC2CCCN(CC3CCCCC3)C2)cc1 (centres undefined) ?
4.45

Could you share which inhibition value was measured for O=C1COC(c2ccccc2)(c2ccccc2)CN1CC1CCN(Cc2ccc(O)cc2Cl)C1 (centres undefined) ?
2.56

Could you share which inhibition value was measured for "COc1ccc(NC(=O)/C=C/c2ccc(-c3ccccc3)cc2)cc1N1CCN(C)CC1" ?
0.83

Could you share which inhibition value was measured for Cc1cc(N(C)C)nc(Nc2ccc(NC(=O)C(C)Oc3ccccc3)cc2)n1 (centres undefined) ?
9.35

Could you share which inhibition value was measured for "Cc1cc(C=C2SC(=Nc3ccccc3)N(C3CCCC3)C2=O)c(C)n1-c1ccc(Cl)cc1" ?
1.29

Could you share which inhibition value was measured for "COc1cc2c(Nc3cccc(NC(=O)c4ccccc4)c3)ncnc2cc1OCCCN1CCOCC1" ?
0.27

Could you share which inhibition value was measured for "NC(=O)c1cnc2cc(-c3ccoc3)ccc2c1Nc1ccc(NC(=O)Nc2ccccc2Cl)cc1" ?
-3.01

Could you share which inhibition value was measured for "O=[N+]([O-])c1ccc(N/C(=N\c2ccccc2Br)NCCOc2ccccc2)c(O)c1" ?
-2.35
